- Method notes: self-splicing fitness, log relative to wild type (ln ratio); higher = more splicing; Tetrahymena group I intron in knt gene, E. coli kanamycin selection, DiMSum; sequences stand for … in CUCUCU…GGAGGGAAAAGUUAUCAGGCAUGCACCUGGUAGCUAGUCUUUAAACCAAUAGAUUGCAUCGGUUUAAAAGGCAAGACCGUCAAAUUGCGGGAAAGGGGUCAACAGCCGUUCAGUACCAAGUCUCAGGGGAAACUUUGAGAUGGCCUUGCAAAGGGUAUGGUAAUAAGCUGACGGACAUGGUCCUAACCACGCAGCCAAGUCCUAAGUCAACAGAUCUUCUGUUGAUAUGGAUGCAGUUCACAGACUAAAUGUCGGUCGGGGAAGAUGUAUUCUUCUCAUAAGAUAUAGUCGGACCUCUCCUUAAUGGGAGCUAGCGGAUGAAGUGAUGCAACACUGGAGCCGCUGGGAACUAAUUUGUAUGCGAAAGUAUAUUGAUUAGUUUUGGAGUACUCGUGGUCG;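 note: selection with 25 µg/mL kanamycin versus none on LB agar overnight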
- Settings: 30 °C
Result type: self-splicing fitness (ln)
// return just the number, without any unit appended

Please report the recorded self-splicing fitness (ln) for GCGAAGCAAUAUUACGAACA .
-1.49

Please report the recorded self-splicing fitness (ln) for AAAUAGCAAUAUUACGUUCU .
-0.419

Please report the recorded self-splicing fitness (ln) for CGUGAGCAAUAUUACGGACU .
-1.09

Please report the recorded self-splicing fitness (ln) for AAACAGCAAUAUUACGCCGA .
-1.99

Please report the recorded self-splicing fitness (ln) for AAGUAGCAAUAUUACGCCAU .
-2.41

Please report the recorded self-splicing fitness (ln) for UGGUAGCAAUAUUACGGAUA .
-1.92

Please report the recorded self-splicing fitness (ln) for GACCAGCAAUAUUACGCAUC .
-0.629

Please report the recorded self-splicing fitness (ln) for AAGAAGCAAUAUUACGGCUG .
-0.496

Please report the recorded self-splicing fitness (ln) for GGUAAGCAAUAUUACGUAAG .
-2.85

Please report the recorded self-splicing fitness (ln) for AGCAAGCAAUAUUACGCGUG .
-3.87

Please report the recorded self-splicing fitness (ln) for GACCAGCAAUAUUACGCUGA .
-1.04

Please report the recorded self-splicing fitness (ln) for ACGCAGCAAUAUUACGACUA .
-1.15

Please report the recorded self-splicing fitness (ln) for ACGCAGCAAUAUUACGGCAU .
-0.55

Please report the recorded self-splicing fitness (ln) for CUUCAGCAAUAUUACGUCGA .
-4.35

Please report the recorded self-splicing fitness (ln) for CUAGAGCAAUAUUACGGGAG .
-0.494

Please report the recorded self-splicing fitness (ln) for CGGCAGCAAUAUUACGUCAC .
-3.84

Please report the recorded self-splicing fitness (ln) for CUAAAGCAAUAUUACGGGAA .
-3.28

Please report the recorded self-splicing fitness (ln) for GUGAAGCAAUAUUACGGGUG .
-1.39

Please report the recorded self-splicing fitness (ln) for ACUUAGCAAUAUUACGUACG .
-1.45

Please report the recorded self-splicing fitness (ln) for CCUAAGCAAUAUUACGGAAC .
-3.35

Please report the recorded self-splicing fitness (ln) for UCUCAGCAAUAUUACGUUCA .
-2.49

Please report the recorded self-splicing fitness (ln) for GCUCAGCAAUAUUACGGGGA .
-0.491

Please report the recorded self-splicing fitness (ln) for UUCGAGCAAUAUUACGUACU .
-2.87

Please report the recorded self-splicing fitness (ln) for CCAAAGCAAUAUUACGAAGG .
-3.61

Please report the recorded self-splicing fitness (ln) for AACAAGCAAUAUUACGCUUC .
-4.57

Please report the recorded self-splicing fitness (ln) for ACCAAGCAAUAUUACGAGGU .
-3.76

Please report the recorded self-splicing fitness (ln) for UCGAAGCAAUAUUACGGAUG .
-2.8

Please report the recorded self-splicing fitness (ln) for UUGUAGCAAUAUUACGUUGU .
-3.77

Please report the recorded self-splicing fitness (ln) for CUCGAGCAAUAUUACGAAGC .
-3.7

Please report the recorded self-splicing fitness (ln) for CGGGAGCAAUAUUACGGAGU .
-3.92

Please report the recorded self-splicing fitness (ln) for GAAAAGCAAUAUUACGGCCC .
0.0394

Please report the recorded self-splicing fitness (ln) for AUAUAGCAAUAUUACGGCAU .
-0.195

Please report the recorded self-splicing fitness (ln) for GCCCAGCAAUAUUACGCCCG .
-4

Please report the recorded self-splicing fitness (ln) for UCCAAGCAAUAUUACGUAGC .
-3.38

Please report the recorded self-splicing fitness (ln) for UACGAGCAAUAUUACGUCCA .
-2.8

Please report the recorded self-splicing fitness (ln) for CGUCAGCAAUAUUACGGGGC .
-2.73

Please report the recorded self-splicing fitness (ln) for AAAAAGCAAUAUUACGAAUG .
-1.48

Please report the recorded self-splicing fitness (ln) for GUCUAGCAAUAUUACGAAUG .
-2.56

Please report the recorded self-splicing fitness (ln) for UUCUAGCAAUAUUACGUAGA .
-3.73

Please report the recorded self-splicing fitness (ln) for GUGUAGCAAUAUUACGUAUU .
-1.25

Please report the recorded self-splicing fitness (ln) for AUAUAGCAAUAUUACGAGUU .
-3.19

Please report the recorded self-splicing fitness (ln) for CGCCAGCAAUAUUACGUUUC .
-3.41

Please report the recorded self-splicing fitness (ln) for CCGAAGCAAUAUUACGAUAU .
-4.3

Please report the recorded self-splicing fitness (ln) for CAUUAGCAAUAUUACGGAGC .
-2.94

Please report the recorded self-splicing fitness (ln) for ACGCAGCAAUAUUACGGAUA .
-3.47

Please report the recorded self-splicing fitness (ln) for UCGUAGCAAUAUUACGGGAG .
-2.85

Please report the recorded self-splicing fitness (ln) for CAACAGCAAUAUUACGACCG .
0.0339

Please report the recorded self-splicing fitness (ln) for GUGUAGCAAUAUUACGGGUU .
-2.77

Please report the recorded self-splicing fitness (ln) for UUUUAGCAAUAUUACGGCGU .
-1.89

Please report the recorded self-splicing fitness (ln) for AAAGAGCAAUAUUACGACUU .
-0.0829

Please report the recorded self-splicing fitness (ln) for ACGAAGCAAUAUUACGGGGU .
-3.47

Please report the recorded self-splicing fitness (ln) for UCUCAGCAAUAUUACGACAG .
-2.76

Please report the recorded self-splicing fitness (ln) for CACCAGCAAUAUUACGCCAU .
-3.39

Please report the recorded self-splicing fitness (ln) for CUACAGCAAUAUUACGACUU .
-3.83

Please report the recorded self-splicing fitness (ln) for UUGAAGCAAUAUUACGAGCU .
-1.76

Please report the recorded self-splicing fitness (ln) for CCUCAGCAAUAUUACGUGAG .
-0.99

Please report the recorded self-splicing fitness (ln) for AUGGAGCAAUAUUACGGAGG .
-2.11

Please report the recorded self-splicing fitness (ln) for UUCAAGCAAUAUUACGACCG .
-1.29

Please report the recorded self-splicing fitness (ln) for ACAUAGCAAUAUUACGUUCA .
-1.39

Please report the recorded self-splicing fitness (ln) for AGAAAGCAAUAUUACGGUAC .
-3.29

Please report the recorded self-splicing fitness (ln) for CAGGAGCAAUAUUACGCUAU .
-3.39

Please report the recorded self-splicing fitness (ln) for GACAAGCAAUAUUACGCCUC .
-2.68

Please report the recorded self-splicing fitness (ln) for GGCCAGCAAUAUUACGAUAA .
-3.64

Please report the recorded self-splicing fitness (ln) for GACGAGCAAUAUUACGAUCC .
-0.986

Please report the recorded self-splicing fitness (ln) for CCCGAGCAAUAUUACGUAAG .
-3.63

Please report the recorded self-splicing fitness (ln) for GCAAAGCAAUAUUACGAGCA .
-2.04

Please report the recorded self-splicing fitness (ln) for UGGAAGCAAUAUUACGCCAU .
-3.64
